# System: Enterohemorrhagic Escherichia coli (EHEC)
# Protocol Description: Bacteriostatic circle test, EHEC
# Format: cell-based
# Protocol Conditions: bacteriostatic circle method; strain EHEC; DMSO negative control
Metric: Circle Size (mm)
Form entry: value (mm) — number only.

Req: May I ask what Circle Size has been recorded for `CC(=O)C1=C(C)OOc2[nH]c3c(F)cccc3c21` ?
Resp: 14.5

Req: Given `O=C(C1=C(c2ccccc2)OOc2[nH]c3cc(Cl)ccc3c21)c1ccccc1` , state its recorded Circle Size.
Resp: 11.5

Req: Query: Circle Size; subject: `Cc1ccc2[nH]c3c(c2c1)C(C(=O)c1ccccc1)=C(c1ccccc1)OO3`
Resp: 16

All figures here come from patent US10035808B1.
